tested on: GH3-TRE-Luc cell line; settings: read-out: AC50 (uM) modified / 1000; Tox21_110001=Tox21_201928; viability, 1 nM T3 present, 24 h
Measurement Name: CC50 (µM)
Give the value, in units of µM, as a plain number.

## Task Need CC50 of "NCCNc1cccc2ccccc12" , thanks.
## Result 37

---

assay: in vitro; details: rat, gh3-tre-luc cells, AC50 (uM) modified / 1000
Structures can show the parent of a compound that is named as a salt.
Assignment: determine reported CC50 at 24 h for the given molecules.

## Task Need CC50 at 24 h of CCCSC(=O)Cl [S-(Propyl) chlorothioformate] , thanks.
## Result > 90 µM

## Task Need CC50 at 24 h of "Cc1c(C2(c3cc(Br)c(O)c(Br)c3C)OS(=O)(=O)c3ccccc32)cc(Br)c(O)c1Br" , thanks.
## Result 45.4 µM

## Task Need CC50 at 24 h of COc1ccc2cc1Oc1cc3c(cc1OC)CC[N+](C)(C)[C@H]3Cc1ccc(cc1)Oc1c(OC)c(OC)cc3c1[C@@H](C2)[N+](C)(C)CC3 [Metocurine iodide] , thanks.
## Result > 50 µM

## Task Need CC50 at 24 h of "Cc1ccccc1OCC(=O)O" , thanks.
## Result > 90 µM

## Task Need CC50 at 24 h of NC(=O)/N=N/C(N)=O [Azodicarbonamide] , thanks.
## Result > 90 µM

## Task Need CC50 at 24 h of "O=C1C(c2[nH]c3ccc(S(=O)(=O)O)cc3c2O)=Nc2ccc(S(=O)(=O)O)cc21" , thanks.
## Result > 90 µM

## Task Need CC50 at 24 h of CCC(=O)OCCc1ccccc1 [2-Phenylethyl propionate] , thanks.
## Result > 90 µM

## Task Need CC50 at 24 h of C[C@@H]1CCC[C@H](C)N1 [cis-Nanophine hydrochloride] , thanks.
## Result > 20 µM

## Task Need CC50 at 24 h of "OCCN(CCO)c1nc(N2CCCCC2)c2nc(N(CCO)CCO)nc(N3CCCCC3)c2n1" , thanks.
## Result > 50 µM

## Task Need CC50 at 24 h of "CCCCCCCCCCC[C@@H](C[C@@H]1OC(=O)[C@H]1CCCCCC)OC(=O)[C@H](CC(C)C)NC=O" , thanks.
## Result > 50 µM

## Task Need CC50 at 24 h of "Cc1ccc(S(=O)(=O)O)cc1" , thanks.
## Result > 90 µM

## Task Need CC50 at 24 h of "Cc1cc(SCc2sc(-c3ccc(C(F)(F)F)c(F)c3)nc2C)ccc1OCC(=O)O" , thanks.
## Result 64.8 µM

## Task Need CC50 at 24 h of CN(C)c1ccc(C(=N)c2ccc(N(C)C)cc2)cc1 [Auramine hydrochloride] , thanks.
## Result 63.2 µM

## Task Need CC50 at 24 h of CCCCCC(CO)CCC (stereo not shown) , thanks.
## Result > 90 µM

## Task Need CC50 at 24 h of C=CCOC(=O)/C=C\C(=O)OCC=C [Diprop-2-en-1-yl (2Z)-but-2-enedioate] , thanks.
## Result > 90 µM

## Task Need CC50 at 24 h of "CC(Cl)=CCCl" , thanks.
## Result > 90 µM

## Task Need CC50 at 24 h of Clc1ccc(C(Cn2ccnc2)OCc2ccsc2Cl)c(Cl)c1 (stereo not shown) , thanks.
## Result 14.7 µM

## Task Need CC50 at 24 h of CC(C)(O)c1ccc(C(C)(C)O)cc1 [1,4-Bis(2-hydroxy-2-propyl)benzene] , thanks.
## Result > 90 µM

## Task Need CC50 at 24 h of "O=C(NO)C1(NS(=O)(=O)c2ccc(Oc3ccc(F)cc3)cc2)CCOCC1" , thanks.
## Result > 90 µM

---

tested on: GH3-TRE-Luc cell line; conditions: read-out: AC50 (uM) modified / 1000; Tox21_110001=Tox21_300585; viability, 1 nM T3 present, 24 h
Measurement Name: CC50 (µM)
Give the value, in units of µM, as a plain number.

## Task Need CC50 of "O=c1c(-c2ccc(O)cc2)coc2cc(O)cc(O)c12" , thanks.
## Result 57.7

---

experiment: in vitro; conditions: rat, gh3-tre-luc cells, AC50 (uM) modified / 1000
Structures can show the parent of a compound that is named as a salt.
Assignment: determine reported CC50 at 24 h for the given molecules.

## Task Need CC50 at 24 h of "CNc1cnn(-c2cccc(C(F)(F)F)c2)c(=O)c1Cl" , thanks.
## Result > 90 µM

## Task Need CC50 at 24 h of "CSCc1cnccn1" , thanks.
## Result > 200 µM

## Task Need CC50 at 24 h of NC(=O)c1ccccc1C(N)=O [Phthalamide] , thanks.
## Result > 90 µM

## Task Need CC50 at 24 h of "O=C(C(Cl)(Cl)Cl)C(Cl)(Cl)Cl" , thanks.
## Result > 90 µM

## Task Need CC50 at 24 h of "CC(C)(C)c1ccc(-c2ccc(C(C)(C)C)cc2)cc1" , thanks.
## Result > 90 µM

## Task Need CC50 at 24 h of "CCCCCCCCCC" , thanks.
## Result > 90 µM

## Task Need CC50 at 24 h of COC(=O)C1=C(C)NC(C)=C(C(=O)OC(C)(C)CN(C)CCC(c2ccccc2)c2ccccc2)C1c1cccc([N+](=O)[O-])c1 (stereo not shown) [lercanidipine hydrochloride] , thanks.
## Result 8.65 µM

## Task Need CC50 at 24 h of "NC[C@@H]1CC[C@@H](N)[C@@H](O[C@H]2[C@H](O)[C@@H](O[C@H]3O[C@H](CO)[C@@H](O)[C@H](N)[C@H]3O)[C@H](N)C[C@@H]2N)O1" , thanks.
## Result > 50 µM

## Task Need CC50 at 24 h of OCC(O)c1ccccc1 (stereo not shown) , thanks.
## Result > 90 µM

## Task Need CC50 at 24 h of CC1OC(=O)C(C)OC1=O (stereo not shown) , thanks.
## Result > 90 µM

## Task Need CC50 at 24 h of "CC(C)(C)C(=O)O" , thanks.
## Result > 90 µM

## Task Need CC50 at 24 h of CCCCOCCOC(C)=O [2-Butoxyethyl acetate] , thanks.
## Result > 90 µM

## Task Need CC50 at 24 h of CC1COC(=O)O1 (stereo not shown) [Propylene carbonate] , thanks.
## Result > 90 µM

## Task Need CC50 at 24 h of "CCN(CC)CCO[C@H]1CC[C@@]2(C)C(=CC[C@@H]3[C@@H]2CC[C@]2(C)C(=O)CC[C@@H]32)C1" , thanks.
## Result > 50 µM

## Task Need CC50 at 24 h of CC(=O)Oc1ccc2c3c1O[C@H]1[C@@H](OC(C)=O)C=C[C@H]4[C@@H](C2)N(C)CC[C@@]341 [(-)-Heroin hydrochloride] , thanks.
## Result > 100 µM

## Task Need CC50 at 24 h of CN(C)CCOC(c1ccc(Cl)cc1)c1ccccn1 (stereo not shown) [Carbinoxamine maleate] , thanks.
## Result 23 µM

## Task Need CC50 at 24 h of CCCCCCOC(=O)CCCCCCCC(=O)OCCCCCC [Dihexyl nonanedioate] , thanks.
## Result > 90 µM

## Task Need CC50 at 24 h of CCCC(C)CC (stereo not shown) , thanks.
## Result > 90 µM

## Task Need CC50 at 24 h of CN(C)CCN1C(=O)c2ccccc2N(C)c2ccccc21 [Dibenzepin hydrochloride] , thanks.
## Result > 50 µM

---

test system: thyroid hormone receptor (TR); experiment: Classification of TR actives across characterization assays (TR-Ag / RXR-Ag; TR model binary); settings: TR agonist characterization
Measurement Name: Categorization Code

INSERT INTO results (compound, measurement_name, result) VALUES
  ('N[C@@H](Cc1cc(I)c(Oc2ccc(O)c(I)c2)c(I)c1)C(=O)[O-].[Na+] [3,3ʹ,5-Triiodo-L-thyronine sodium salt, reference compound]', 'Categorization Code', 'TR-Ag'),
  ('CC1(C)COP(Oc2ccccc2)OC1', 'Categorization Code', 'FP'),
  ('C[C@]12CC[C@H]3C(=CCc4cc(O)ccc43)[C@@H]1CCC2=O [Equilin, reference compound]', 'Categorization Code', 'RXR-Ag'),
  ('N[C@@H](Cc1cc(I)c(Oc2ccc(O)c(I)c2)c(I)c1)C(=O)O [3,5,3ʹ-Triiodothyronine, reference compound]', 'Categorization Code', 'TR-Ag'),
  ('c1csc(-c2ccc(-c3cccs3)s2)c1', 'Categorization Code', 'FP');

## Task Need Categorization Code of CC1=C(/C=C/C(C)=C\C=C\C(C)=C\C(=O)O)C(C)(C)CCC1 [9-cis Retinoic acid, reference compound] , thanks.
## Result RXR-Ag

## Task Need Categorization Code of "CC(C)(c1ccccc1)c1ccc(O)c(C(C)(C)c2ccccc2)c1" , thanks.
## Result FP

## Task Need Categorization Code of "CN(C)c1ccc(N=O)cc1" , thanks.
## Result FP
